Just for reference, PubChem BioAssay (NCATS) is where these values come from.

assay: qHTS of pediatric cancer cell lines to identify multiple opportunities for drug repurposing: Primary screen for DAOY cells (AID 1347090); details: DAOY medulloblastoma viability, CellTiter-Glo luminescence, 48 h; series mostly up to 46 µM; also: nearly all actives have a fitted effect of over 55% in size
Results filed as inconclusive are left out. Active and inactive are the calls of the source. Calls follow the shape of the dose curve; as a rule, active = well fitted cell-killing curve with a large enough effect; inconclusive = small, poorly fitted or top-dose-only effect; inactive = flat fitted curve, though single readings scatter.
Possible outcomes: yes (active), no (inactive)

COMPOUND | CLASS_NAME
CC(=O)Nc1ccc([C@H](C)C(=O)Nc2ncc(C(C)C)s2)cc1 | yes
CC(C)NCC(O)COc1cccc2[nH]ccc12 (stereo not given) | no
CN(C)c1cc(NC(=O)CNC(C)(C)C)c(O)c2c1C[C@@H]1C[C@H]3[C@H](N(C)C)C(=O)C(C(N)=O)=C(O)[C@@]3(O)C(=O)C1=C2O | no
COc1ccc(-c2nc(N3CCOCC3)c3sc(CN(C)c4ncc(C(=O)NO)cn4)cc3n2)cn1 | yes
CC#CCn1c(N2CCC[C@@H](N)C2)nc2c1c(=O)n(Cc1nc(C)c3ccccc3n1)c(=O)n2C | no
NS(=O)(=O)c1cccc2c1C(=O)c1cccc(O)c1C2=O | yes
CC(C)(C)NC(=O)Nc1cccc(Nc2ncc(F)c(NC(C)(C)CO)n2)c1 | no
COc1ccc(-n2c(C)c([N+](=O)[O-])c3ccc(O)cc32)cc1 | no
CC(C)C[C@H](CC(=O)O)C(=O)N[C@@H](Cc1c[nH]c2ccccc12)C(=O)N[C@@H](C)c1ccccc1 | no
C[C@@H](O)[C@H]1C(=O)N2C(C(=O)O)=C(S[C@@H]3CN[C@H](C(=O)N(C)C)C3)[C@H](C)[C@H]12 | no
O=C1NC(=O)C(=Cc2ccc3c(c2)OC(F)(F)O3)S1 | yes
O=C(NOCC(O)CO)c1cc(Br)c(F)c(F)c1Nc1ccc(I)cc1F (stereo not given) | yes
O=C(O)Cc1cccc2ccccc12 | no
N#CC(=C(N)Sc1ccccc1N)C(C#N)=C(N)Sc1ccccc1N | yes
Cc1cccc(C)c1OCC(C)N (stereo not given) | no
CO[C@H]1C[C@@H]2CC[C@@H](C)[C@@](O)(O2)C(=O)C(=O)N2CCCC[C@@H]2C(=O)O[C@H]([C@H](C)C[C@@H]2CC[C@H](OP(C)(C)=O)[C@H](OC)C2)CC(=O)[C@H](C)C=C(C)[C@@H](O)[C@@H](OC)C(=O)[C@H](C)C[C@H](C)C=CC=CC=C1C | no
CCCCCN(C)CCC(O)(P(=O)(O)O)P(=O)(O)O | no
O=C(Nc1c(Cl)cncc1Cl)c1ccc(OC(F)F)c(OCC2CC2)c1 | no
COc1cc(N2CCC(N3CCN(C)CC3)CC2)ccc1Nc1ncc(Cl)c(Nc2ccccc2S(=O)(=O)C(C)C)n1 | no
CC1(C)O[C@H]2C[C@@H]3[C@H]4CCC5=CC(=O)C=C[C@]5(C)[C@@]4(F)[C@@H](O)C[C@]3(C)[C@]2(C(=O)CO)O1 | no
